- test-system: Mouse ACVR2A (mouse, UniProt P27038 20-135, limits assumed); also: test concentration or dose not given here
- Sequence (P27038 20-135 limits assumed): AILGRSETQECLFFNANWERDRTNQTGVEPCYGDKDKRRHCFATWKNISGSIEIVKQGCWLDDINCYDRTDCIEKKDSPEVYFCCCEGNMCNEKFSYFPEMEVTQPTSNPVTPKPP
- test: ELISA
- Procedure: The binding of ACVR2A-specific monoclonal antibodies to human ACVR2A, mouse ACVR2A, biotinylated goat anti-human kappa light chain (positive control) and human Fc (negative control) were determined by ELISA.
Each entry gets no if its optical density stays under 3 OD, and yes if its optical density is 3 OD or above.

# bool: optical density of 373_D01 (antibody, V domains shown) VH: EVQLLESGGGLVQPGGSLRLSCAASGFTFDSYSMNWVRQAPGKGLEWVSGINYNSGYKSYADSVKGRFTISRDNSKNTLYLQMNSLRAEDTAVYYCARSANWHDTHLDYWGQGTLVTVSS VL: DIQMTQSPSSLSASVGDRVTITCRASQSILSYVNWYQQKPGKAPKLVIYAATSRASGVPSRFSGSGSGTDFTLTISSLQPEDFATYYCQQSYDSPLTFGGGTKVEIK >= 3 OD
yes

More entries:
Given 370_A12 (antibody, V domains shown) VH: EVQLLESGGGLVQPGGSLRLSCAASGFTFSSYGMNWVRQAPGKGLEWVAGINYNGGYTSYADSVKGRFTISRDNSKNTLYLQMNSLRAEDTAVYYCARSANWHDTALDYWGQGTLVTVSS VL: DIQMTQSPSSLSASVGDRVTITCRASQSILTYLNWYQQKPGKAPKLLIYAATSLASGVPSRFSGSGSGTDFTLTISSLQPEDFATYYCQQSYDSPLTFGGGTKVEIK , state whether its optical density is at least 3 OD.
yes

State whether the measured optical density reaches 3 OD, counting equality as reaching it, for 367_H11 (antibody, V domains shown) VH: EVQLLESGGGLVQPGGSLRLSCAASGFTFSSYGMNWVRQAPGKGLEWVAGINYNGGYKGYADSVKGRFTISRDNSKNTLYLQMNSLRAEDTAVYYCARSANWHDTALDYWGQGTLVTVSS VL: DIQMTQSPSSLSASVGDRVTITCRASQSIISYVNWYQQKPGKAPKLVIYAATSRASGVPSRFSGSGSGTDFTLTISSLQPEDFATYYCQQSYNSPLTFGGGTKVEIK
no

In plain terms: is recorded optical density at least 3 OD for 367_C11 (antibody, V domains shown) VH: EVQLLESGGGLVQPGGSLRLSCAASGFTFDSYSMNWVRQAPGKGLEWVSSINYNSGYTGYADSVKGRFTISRDNSKNTLYLQMNSLRAEDTAVYYCARSANWHDTHLDYWGQGTLVTVSS VL: DIQMTQSPSSLSASVGDRVTITCRASQSILSYLNWYQQKPGKAPKLVIYAATSRHSGVPSRFSGSGSGTDFTLTISSLQPEDFATYYCQQSYNTPLTFGGGTKVEIK ?
no
